- targetOrTestSystem: T1, Clostridium difficile toxin A (Clostridioides difficile …, UniProt P16154)
- T1 construct: also called TcdA
- assayText: SPR
- experimentalSetup: both partners purified
measureName: Kd

query: Entry under review: A26.8 VHH T103W (VHH, source: E. coli TG1, periplasmic extract, purified (IMAC, SEC)) VHH: QVKLEESGGGLVQAGGSLRLSCAASERTFSRYPVAWFRQAPGAEREFVAVISSTGTSTYYADSVKGRFTISRDNAKVTVYLQMNNLKREDTAVYFCAVNSQRWRLQDPNEYDYWGQGTQVTVSS . Reported Kd?
result: 16.3 nM

query: Can you handle A26.8 VHH Q106F (VHH, source: E. coli TG1, periplasmic extract, purified (IMAC, SEC)) VHH: QVKLEESGGGLVQAGGSLRLSCAASERTFSRYPVAWFRQAPGAEREFVAVISSTGTSTYYADSVKGRFTISRDNAKVTVYLQMNNLKREDTAVYFCAVNSQRTRLFDPNEYDYWGQGTQVTVSS next?
result: 5130 nM

query: Can you handle A26.8 VHH Q101K (VHH, source: E. coli TG1, periplasmic extract, purified (IMAC, SEC)) VHH: QVKLEESGGGLVQAGGSLRLSCAASERTFSRYPVAWFRQAPGAEREFVAVISSTGTSTYYADSVKGRFTISRDNAKVTVYLQMNNLKREDTAVYFCAVNSKRTRLQDPNEYDYWGQGTQVTVSS next?
result: 7.6 nM

query: Can you handle A26.8 VHH Q101K, T103R (VHH, source: E. coli TG1, periplasmic extract, purified (IMAC, SEC)) VHH: QVKLEESGGGLVQAGGSLRLSCAASERTFSRYPVAWFRQAPGAEREFVAVISSTGTSTYYADSVKGRFTISRDNAKVTVYLQMNNLKREDTAVYFCAVNSKRRRLQDPNEYDYWGQGTQVTVSS next?
result: 4.2 nM
